Reported Supression values for the following molecules.
Test system: Cricetinae gen. sp.
Experiment: Antileishmanial activity against Leishmania donovani in hamsters at a concentration of 13 mg/kg
Format: functional
Express it in %; write the number only.

1. COc1cc(NCCCCCCN(C(C)C)C(C)C)c2nccc(C)c2c1.Cl.Cl    97.5

Entry `COc1cc(NCCCCCCNC2CCC2)c2nccc(C)c2c1.Cl` has what Supression?
100

Cool, now `CCN(CCO)CCCCCCNc1cc(OC)cc2c(C)ccnc12.Cl`
79.2

One more molecule: `CCN(CC)CCCCCCCNc1cc(OC)cc2c(C)ccnc12.Cl.Cl`
100

Query `CCN(CC)CCCCCNc1cc(OC)cc2c(C)ccnc12` next
100

Next: `COc1cc(NCCCCCCNCCO)c2nccc(C)c2c1.Cl`
99.9

Would you mind doing `CCN(CC)CCCCCCNc1cc(OC)c(OC)c2c(C)ccnc12.Cl.Cl` as well?
99.9

----------
Supression values, listed per item
Test system: Cricetinae gen. sp.
Experiment: Antileishmanial activity against Leishmania donovani in hamsters at a concentration of 0.05 mg/kg
Format: functional
Only the number, expressed in %, is required.

Answered cases to consult:
1) CCN(CC)CCCCCCNc1cc(OC)c(OC)c2c(C)ccnc12.Cl.Cl    68
2) CCCN(CCC)CCCCCCNc1cc(OC)cc2c(C)ccnc12.Cl    31
3) COc1cc(NCCCCCCN(C(C)C)C(C)C)c2nccc(C)c2c1.Cl.Cl    20.2

Moving on to another compound below.
Would you mind telling me what Supression value was observed for `CCN(CC)CCCCCCNc1cc(OC)cc2c(C)ccnc12` ?
83.7
